Induction Fold values, listed per item
- Tested on: MHC-I expression by COLO 205 cells
- protocolText: cells
- Format: cell-based, human
- cond: MHC-I expression, COLO 205 cells, compounds at 35 μM, 48 hours, flow cytometry (W6/32)
Kindly format the answer as number then unit.

Reference set (6 entries):
structureSmiles	result
CCCCCn1cc(-c2nc(CN(CC)CC)cs2)c2ccccc21	0.89 Fold
CCCCCn1c(C)c(C(=O)c2cccc3ccccc23)c2ccccc21	2.43 Fold
CCCCCn1nc(C(=O)c2cccc3ccccc23)c2ccccc21	2.14 Fold
CC[C@H](C)[C@H](NC(=O)c1c2ccccc2nn1CCCCCF)C(N)=O	1.05 Fold
CCCCCn1cc(C(=O)C23CC4CC(CC(C4)C2)C3)c2ccccc21	1.66 Fold
O=C(NC12CC3CC(CC(C3)C1)C2)c1nn(CCCCCF)c2ccccc12	1.37 Fold

Data request, read-out Induction Fold, for CCCCCn1cc(C(=O)c2cccc3ccccc23)c2ccccc21
2.69 Fold

Subsequent entry: COC(=O)[C@@H](NC(=O)c1nn(Cc2ccc(F)cc2)c2ccccc12)C(C)(C)C
3.02 Fold

Same for CCOC(=O)[C@@H](NC(=O)c1nn(Cc2ccc(F)cc2)c2ccccc12)C(C)C
5.50 Fold

###

- System: MHC class I expression on COLO 205 cells
- protocolText: MHC class I expression on COLO 205 cells, 24 hours, flow cytometry (W6/32)
- cond: COLO 205, 10 μM, W6/32 staining
Listed here: items and their measured MFI.
Quick one: just the number, no unit, thanks!

compound	MFI
CCCc1cc(O)c2c(c1)OC(C)(C)[C@@H]1CCC(C)=C[C@@H]21 [Example 5]	152

GET /values?readout=MFI&item= CCCCCc1cc(O)c(C/C=C(\C)CCC=C(C)C)c(O)c1 [Example 1]
125

Subsequent entry: CCCCCc1cc(O)c2c(c1)OC(C)(C)c1ccc(C)cc1-2 [Example 4]
120

CCCCCc1cc(O)c2c(c1)OC(C)(CCC=C(C)C)C=C2 (centres unmarked) [Example 3] , same question.
120

Entry to check: C=C(C)[C@@H]1CCC(C)=CC1c1c(O)cc(CCCCC)cc1O (some centres unmarked) [Example 2]
141

###

Quick reference: fold induction at 35 µM of the listed items.
- System: MHC-I expression by COLO 205 cells
- protocolText: cells
- Assay type: cell-based, human
- cond: Homo sapiens, COLO 205, 48 h, MHC-I expression, COLO 205 cells, compounds at 35 μM, 48 hours, flow cytometry (W6/32); read-out: Induction Fold
Give the figure by itself; no unit, no explanation.

Here's what some known entries look like.
compound	attributeMeasured	numericResult
CCCCCn1cc(C(=O)c2cccc3cc(C)ccc23)c2ccccc21	fold induction at 35 µM	1.69
CCCCCn1cc(C(=O)c2cccc3ccc(OC)cc23)c2ccccc21	fold induction at 35 µM	2.04
O=C(c1cccc2ccccc12)c1cn(CCCCCCF)c2ccccc12	fold induction at 35 µM	1.18
CC(F)CCCCn1cc(C(=O)c2cccc3ccccc23)c2ccccc21 (stereo not shown)	fold induction at 35 µM	1.71
O=C(Oc1ccc2cnccc2c1)c1cn(CCCCCF)c2ccccc12	fold induction at 35 µM	1.78

Any idea what fold induction at 35 µM was measured for CCCCCn1nc(C(=O)N[C@H](C(N)=O)[C@@H](C)CC)c2ccccc21 (single isomer, unassigned) ?
3.49

Request: O=C(Oc1ccnc2ccccc12)c1cn(CCCCCF)c2ccccc12
2.47

What about CCCCCn1cc(C(=O)Cc2ccccc2Br)c2ccccc21 ?
2.32

Would you mind doing O=C(NC1C2CC3CC(C2)CC1C3)c1nn(CC2CCOCC2)c2ccccc12 (single isomer, unassigned) as well?
1.07

Proceed to COc1cccc2c(C(=O)N3CCN(C)C(C)C3)cn(CC3CCCCC3)c12 (racemic)
1.5
